QUANTITY KIND: melting point

// CCN(Cc1cc(-c2ncco2)ccc1-c1ccccc1S(=O)(=O)Nc1onc(C)c1C)CC(F)(F)F : melting point value = 55 to 65 °C

// O=C(O)c1nc2ccc(NCCCN3CCC(OC(c4ccccc4)c4ccccc4)CC3)nn2n1 : melting point value = 135 to 138 °C

// Cc1csc(-c2nc(=O)c3ccccc3s2)n1 : melting point value = 210 to 211 °C

// Cc1ccc(S(=O)(=O)OC2CCC3(C)C4CCC5(C)C(=O)CCC5C4CC(O)C3(O)C2)cc1 (stereo not given) : melting point value = 154 to 156 °C

// Cc1nc(N2CCN(Cc3ccccc3)C2=O)sc1C(=O)NCc1ccc(F)c(F)c1 : melting point value = 152 to 153 °C

// O=C(c1cccs1)C(O)c1ccc(F)cc1 (stereo not given) : melting point value = 90 to 92 °C

// Nc1ccc(Cl)cc1C(O)c1ccccc1F (stereo not given) : melting point value = 94 to 98 °C

// N#Cc1ccc2nc(CCl)[nH]c2c1 : melting point value = 144 to 146 °C

// CCC(c1ccc(Br)cc1)N(O)C(=O)NC (stereo not given) : melting point value = 110 to 112 °C

// COC(=O)c1cc(-n2c(=O)c3c(n(C)c2=O)CCC3)c(F)cc1Cl : melting point value = 138 to 141 °C

---

I'd appreciate it if you could supply melting point values for the items below.

// CCC(C)N1CCc2c(C(=O)O)nc3c(C#N)cnn3c21 (stereo not given) : melting point value = 191 to 192 °C

// CCC#CCCOc1ccc(C=O)cc1OC : melting point value = 80 to 81 °C

// Cc1ccc(C(=O)OC2CCN(Cc3cccc([N+](=O)[O-])c3)CC2)cc1 : melting point value = 90 to 93 °C

// C=CCc1cc(C=CC(=O)O)ccc1OC(C)=O : melting point value = 143 to 144 °C

// CCCCCCCNC(=O)Nc1ccc(N(C)C)cc1C(=O)NCC1CCCN(C(c2ccccc2)c2ccccc2)C1 (stereo not given) : melting point value = 142 to 144 °C

// O=C(Nc1nc(C(F)(F)F)c(Br)s1)c1ccc(Cl)c(Cl)c1 : melting point value = 191 to 192 °C

// NS(=O)(=O)c1ccc(NC(=O)CNc2ccccc2)c(F)c1 : melting point value = 197 to 198 °C

// COc1cc(Nc2c(C#N)cnc3cc(-c4ccc(CN5CCC(O)CC5)cc4)sc23)c(Cl)cc1Cl : melting point value = 149 to 150 °C

// O=C(O)c1cccc(CN2CCC(c3cn(CCc4ccccn4)c4ccccc34)CC2)c1 : melting point value = 141 to 142 °C

// CC(C)n1cc(-c2ccc(Oc3ccccc3)c(CO)c2)c2c(N)ncnc21 : melting point value = 92 to 94 °C

// CCN(CC)CCn1nc2c3c(c(CN)ccc31)Sc1ccc(OC)cc1-2 : melting point value = 74 to 76 °C

// CC(=NOCCO)c1ccc(-c2ccc(F)cc2)cc1 : melting point value = 133 to 134 °C

// N#CCCNC(=O)c1cccc(-c2cccc3nn(Cc4cccc(C(F)(F)F)c4)cc23)n1 : melting point value = 178 to 179 °C

// Oc1nc2cc(Br)c3ccccc3c2nc1O : melting point value = > 300 °C

// Nc1ccc(-c2cc(C(F)(F)F)nc(-c3ccc(C(F)(F)F)cc3)n2)cc1 : melting point value = 162 °C

// O=C(O)CN1C(=O)SC(=Cc2ccc(OCc3ccccc3)c(OCc3ccccc3)c2)C1=O : melting point value = 167 to 170 °C

// O=C1CCCc2nc3ccccc3c(NCc3ccccc3C(F)(F)F)c21 : melting point value = 167 °C

// COC(=O)CC1OC(=O)c2ccccc21 (stereo not given) : melting point value = 62 to 63 °C

// O=CC(=CCl)c1ccc(Cl)cc1 : melting point value = 38 °C

// CC(C=CC(=O)NCCCN1CCCCC1)=CCc1ccc(Cl)c(Cl)c1 : melting point value = 50 to 60 °C
